Test system: Bile acid receptor (Homo sapiens) (UniProt Q96RI1)
Sequence (Q96RI1 whole entry): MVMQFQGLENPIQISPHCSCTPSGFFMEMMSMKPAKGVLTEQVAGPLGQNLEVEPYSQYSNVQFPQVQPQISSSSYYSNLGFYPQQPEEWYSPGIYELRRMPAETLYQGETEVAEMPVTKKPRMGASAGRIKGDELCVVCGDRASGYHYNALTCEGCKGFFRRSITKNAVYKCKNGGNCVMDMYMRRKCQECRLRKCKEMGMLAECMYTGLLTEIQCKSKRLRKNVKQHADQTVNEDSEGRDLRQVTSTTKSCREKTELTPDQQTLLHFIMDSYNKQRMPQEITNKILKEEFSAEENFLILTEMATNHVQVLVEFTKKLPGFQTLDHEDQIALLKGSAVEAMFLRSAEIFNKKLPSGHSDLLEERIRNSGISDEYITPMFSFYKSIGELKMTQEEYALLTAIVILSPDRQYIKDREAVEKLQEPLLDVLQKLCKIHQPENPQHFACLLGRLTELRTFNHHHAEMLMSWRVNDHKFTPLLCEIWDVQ
Assay info: Ratio of E16 IC50 to compound IC50 for human GST-tagged FXR after 20 mins by TR-FRET assay
Measure: Ratio IC50

Sample answers from the record:
>  <Structure smiles string>
Cc1ccc(-c2nn(-c3ccc(F)cc3)cc2C(=O)Nc2ccc(C)c(S(=O)(=O)N3CCOCC3)c2)cc1

>  <Ratio IC50>
3

$$$$
>  <Structure smiles string>
Cc1ccc(-c2nn(-c3ccc(Cl)cc3Cl)cc2C(=O)Nc2ccc(C)c(S(=O)(=O)N3CCOCC3)c2)cc1

>  <Ratio IC50>
3

$$$$
>  <Structure smiles string>
Cc1ccc(-c2nn(-c3cccc(C(F)(F)F)c3)cc2C(=O)Nc2ccc(C)c(S(=O)(=O)N3CCOCC3)c2)cc1

>  <Ratio IC50>
3

$$$$
>  <Structure smiles string>
Cc1ccc(-c2nn(-c3nc4ccccc4s3)cc2C(=O)Nc2ccc(C)c(S(=O)(=O)N3CCOCC3)c2)cc1

>  <Ratio IC50>
3

$$$$

[I] Cc1ccc(-c2nn(-c3cccc(Cl)c3)cc2C(=O)Nc2ccc(C)c(S(=O)(=O)N3CCOCC3)c2)cc1
[II] COc1cccc(Cn2cc(C(=O)Nc3ccc(C)c(S(=O)(=O)N4CCOCC4)c3)c(-c3ccc(C)cc3)n2)c1
In terms of reported Ratio IC50, does I or II have the smaller number? Pick one and reply with its label. I
(I: 3, II: 5.26)
